Target: human histone deacetylases (HDAC) 6 (Homo sapiens, UniProt Q9UBN7)
Sequence (Q9UBN7 whole entry): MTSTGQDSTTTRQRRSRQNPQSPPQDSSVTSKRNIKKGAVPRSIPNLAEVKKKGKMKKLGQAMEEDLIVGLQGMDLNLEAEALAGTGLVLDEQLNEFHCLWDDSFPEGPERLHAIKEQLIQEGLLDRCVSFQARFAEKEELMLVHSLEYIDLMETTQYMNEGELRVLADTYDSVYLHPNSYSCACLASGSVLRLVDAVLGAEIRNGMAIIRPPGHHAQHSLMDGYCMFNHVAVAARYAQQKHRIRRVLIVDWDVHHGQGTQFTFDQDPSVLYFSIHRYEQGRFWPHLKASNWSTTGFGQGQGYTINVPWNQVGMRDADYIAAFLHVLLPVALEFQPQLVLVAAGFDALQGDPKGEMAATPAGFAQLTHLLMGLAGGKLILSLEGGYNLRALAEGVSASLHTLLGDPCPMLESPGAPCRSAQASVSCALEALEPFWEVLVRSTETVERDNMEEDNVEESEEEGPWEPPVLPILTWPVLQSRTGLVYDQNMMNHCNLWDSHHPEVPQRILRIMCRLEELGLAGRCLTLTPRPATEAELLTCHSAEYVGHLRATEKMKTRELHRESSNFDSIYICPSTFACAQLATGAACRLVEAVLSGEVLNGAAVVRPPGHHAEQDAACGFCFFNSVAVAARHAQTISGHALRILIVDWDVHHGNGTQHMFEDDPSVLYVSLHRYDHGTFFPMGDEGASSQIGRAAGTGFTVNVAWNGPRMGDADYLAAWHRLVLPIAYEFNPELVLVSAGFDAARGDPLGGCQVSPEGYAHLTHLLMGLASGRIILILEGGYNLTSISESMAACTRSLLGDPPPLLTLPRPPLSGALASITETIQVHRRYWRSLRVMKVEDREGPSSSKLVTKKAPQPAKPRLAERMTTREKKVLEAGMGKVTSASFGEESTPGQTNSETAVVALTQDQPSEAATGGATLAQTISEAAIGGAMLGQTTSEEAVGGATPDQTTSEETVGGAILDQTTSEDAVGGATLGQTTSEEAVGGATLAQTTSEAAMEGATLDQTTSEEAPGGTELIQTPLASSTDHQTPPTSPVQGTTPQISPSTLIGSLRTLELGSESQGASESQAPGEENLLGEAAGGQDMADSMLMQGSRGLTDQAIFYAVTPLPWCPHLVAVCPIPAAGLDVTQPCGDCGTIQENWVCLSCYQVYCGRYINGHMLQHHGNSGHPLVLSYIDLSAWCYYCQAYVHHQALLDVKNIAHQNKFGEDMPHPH
Experiment: HDAC enzymatic assay, HDAC6
Format: biochemical
Conditions: HDAC6; read-out: IC50 HDAC6 (grading)
readout kind: IC50

Recorded IC50, per entry:
                                   molecule  readout_kind  observed_value
0  CCc1nc2cc(Cl)c(/C=C/C(=O)NO)cc2c(=O)n1CCc1ccccc1 [Compound 3b]          IC50  100 to 1000 nM
1  CCc1nc2cc(/C=C/C(=O)NO)ccc2c(=O)n1CCCc1ccccc1 [Compound 1j]          IC50        < 100 nM
2  CCc1nc2cc(/C=C/C(=O)NO)c(F)cc2c(=O)n1CCc1ccccc1 [Compound 2a]          IC50        < 100 nM

Record summary for Cc1nc2cc(/C=C/C(=O)NO)ccc2c(=O)n1CCc1ccccc1 [Compound 1f] : reported IC50 = < 100 nM

Record summary for Cc1nc2cc(/C=C/C(=O)NO)ccc2c(=O)n1CCc1c[nH]c2ccccc12 [Compound 1g] : reported IC50 = < 100 nM
